system: LOX IMVI melanoma; test: NCI tumour cell line growth inhibition, 48 h
The entries below come with measured TGI values attached.

[
  {
    "compound": "Cc1cnccc1N=Nc1ccc(N(C)C)cc1",
    "TGI": "53.9 µM"
  },
  {
    "compound": "O=C1C(=O)N(c2nccs2)C(=O)C(=O)C1c1nc2ccccc2s1",
    "TGI": "> 100 µM"
  },
  {
    "compound": "CCOC(=O)C(NC(=O)CC)(Nc1ccc(F)c(Cl)c1)C(F)(F)F (stereo not drawn)",
    "TGI": "> 100 µM"
  },
  {
    "compound": "OCC(O)C(O)C(O)c1nn(-c2ccccc2)c2nc3cc(Cl)c(Cl)cc3nc12 (stereo not drawn)",
    "TGI": "> 100 µM"
  },
  {
    "compound": "C[n+]1c2ccccc2c(/C=N\\NS(=O)(=O)c2ccc(Cl)cc2)c2ccccc21",
    "TGI": "> 100 µM"
  },
  {
    "compound": "CCOC(=O)C(C)(C)Oc1ccc2c(-c3ccc(Cl)cc3)c(-c3ccc(Cl)cc3)c(=O)oc2c1",
    "TGI": "> 100 µM"
  },
  {
    "compound": "CN(C)CCSCCO",
    "TGI": "> 100 µM"
  },
  {
    "compound": "CCCCCN(CCCCC)CC(C)(C)C(O)c1ccc(OC)c2ccccc12 (stereo not drawn)",
    "TGI": "4.99 µM"
  },
  {
    "compound": "C=C1C(=O)OC2/C=C(\\CO)CC/C=C(\\CO)CC(OC(=O)C(C)C)C12 (stereo not drawn)",
    "TGI": "45.8 µM"
  },
  {
    "compound": "O=C(NC1C2CC3CC(C2)CC1C3)/C(Cl)=C1/Sc2ccccc2NC1=O (stereo not drawn)",
    "TGI": "> 100 µM"
  },
  {
    "compound": "COc1c2ccsc2c(OC)c2ccsc12",
    "TGI": "> 100 µM"
  },
  {
    "compound": "N=c1oc2ccccc2cc1-c1nc2ccccc2c(=O)[nH]1",
    "TGI": "> 100 µM"
  },
  {
    "compound": "O=C(O)CNC(=O)c1ccc2cc(C(=O)N3CC(CCl)c4ccc([N+](=O)[O-])cc43)[nH]c2c1 (stereo not drawn)",
    "TGI": "> 100 µM"
  },
  {
    "compound": "COc1ccc(-c2cc(-c3cccc(NS(C)(=O)=O)c3)nc(N)c2C#N)cc1",
    "TGI": "> 37.5 µM"
  },
  {
    "compound": "CNC(=S)NNc1ncnc2c1ncn2-c1ccc(C)cc1",
    "TGI": "> 100 µM"
  },
  {
    "compound": "CCCC(=O)NC(Nc1ccc(F)cc1)(C(F)(F)F)C(F)(F)F",
    "TGI": "> 100 µM"
  },
  {
    "compound": "O=C1CS[C@@](CC(c2ccc(Cl)cc2)c2ccc(Cl)cc2)(c2ccc(Cl)cc2)N1",
    "TGI": "65.4 µM"
  },
  {
    "compound": "CN(C)c1ccc(/C=C/C(=O)O)cc1",
    "TGI": "> 100 µM"
  },
  {
    "compound": "O=C(N/N=C(/COc1ccccc1Cl)N=Cc1ccncc1)c1ccncc1",
    "TGI": "> 100 µM"
  },
  {
    "compound": "CN(CC(=O)O)Cc1oc(CO)cc(=O)c1O",
    "TGI": "> 100 µM"
  },
  {
    "compound": "CS(=O)(=O)N(CCC#N)c1ccc(C=O)cc1",
    "TGI": "> 100 µM"
  },
  {
    "compound": "CCCc1nnc2sc(COc3cc(Cl)c(OCc4nn5c(CCC)nnc5s4)cc3Cl)nn12",
    "TGI": "> 100 µM"
  },
  {
    "compound": "COc1cccc(C2SC(C)C(=O)N2CCc2cccs2)c1 (stereo not drawn)",
    "TGI": "11.6 µM"
  }
]
